# target: human endothelin A receptor (Homo sapiens)
# Construct: expressed in transfected cells; host or cells: CHO-K1 (G-418 selected)
# protocol-details: In vitro ETA binding, attached cell assay, [125I]-ET-1 competition
# condition-notes: IC50 (nM) Run 2, Table 2; 99.2% pure atropisomers of Example 2; Run 2
parameter: IC50 (nM)

INSERT INTO results (compound, numeric_result) VALUES
  ('Cc1onc(NS(=O)(=O)c2ccccc2-c2ccc(-c3ncco3)cc2CN(C)C(=O)CC(C)(C)C)c1C (racemic) [Racemate]', 0.08);

----------
# target: human endothelin A receptor (Homo sapiens, UniProt P25101)
# Construct: expressed in transfected cells; host or cells: CHO-K1 (G-418 selected)
# Sequence (P25101 21-427): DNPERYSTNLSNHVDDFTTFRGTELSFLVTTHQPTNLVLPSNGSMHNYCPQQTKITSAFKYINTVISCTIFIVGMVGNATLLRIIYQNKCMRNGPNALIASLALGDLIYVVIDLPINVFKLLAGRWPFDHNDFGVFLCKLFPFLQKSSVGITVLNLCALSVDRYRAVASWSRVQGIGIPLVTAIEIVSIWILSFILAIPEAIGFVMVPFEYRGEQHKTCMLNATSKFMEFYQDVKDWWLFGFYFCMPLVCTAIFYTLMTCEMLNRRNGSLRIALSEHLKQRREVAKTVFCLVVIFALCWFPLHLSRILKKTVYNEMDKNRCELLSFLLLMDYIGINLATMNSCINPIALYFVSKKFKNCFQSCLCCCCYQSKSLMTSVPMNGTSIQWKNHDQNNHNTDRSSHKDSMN
# protocol-details: In vitro ETA binding, attached cell assay, [125I]-ET-1 competition
# condition-notes: Table 1; 97% pure atropisomers of Example 2; Run 1; CHO-K1 cells expressing human ETA, 4° C.; read-out: IC50 (nM) Run 1
parameter: IC50 (nM)

INSERT INTO assay_data (compound, scale_unit, numeric_result) VALUES
  ('Cc1onc(NS(=O)(=O)c2ccccc2-c2ccc(-c3ncco3)cc2CN(C)C(=O)CC(C)(C)C)c1C (single isomer, unassigned) [97% pure (−) levorotatory]', 'nM', 0.41),
  ('Cc1onc(NS(=O)(=O)c2ccccc2-c2ccc(-c3ncco3)cc2CN(C)C(=O)CC(C)(C)C)c1C (single isomer, unassigned) [97% pure (+) dextrorotatory]', 'nM', 0.03);

----------
# target: human endothelin A receptor (Homo sapiens)
# Construct: expressed in transfected cells; host or cells: CHO-K1 (G-418 selected)
# protocol-details: In vitro ETA binding, attached cell assay, [125I]-ET-1 competition
# condition-notes: IC50 (nM) Run 1, Table 1; 97% pure atropisomers of Example 2; Run 1; CHO-K1 cells expressing human ETA, 4° C.
parameter: IC50 (nM)

INSERT INTO measurements (compound, target, parameter, scale_unit, numeric_result) VALUES
  ('Cc1onc(NS(=O)(=O)c2ccccc2-c2ccc(-c3ncco3)cc2CN(C)C(=O)CC(C)(C)C)c1C (racemic) [Racemate]', 'human endothelin A receptor (Homo sapiens)', 'IC50', 'nM', 0.12);

----------
# target: human endothelin A receptor (Homo sapiens, UniProt P25101)
# Construct: expressed in transfected cells; host or cells: CHO-K1 (G-418 selected)
# protocol-details: In vitro ETA binding, attached cell assay, [125I]-ET-1 competition
# condition-notes: IC50 (nM) Run 5, Table 2; 99.2% pure atropisomers of Example 2; Run 5
parameter: IC50

INSERT INTO measurements (molecule, result) VALUES
  ('Cc1onc(NS(=O)(=O)c2ccccc2-c2ccc(-c3ncco3)cc2CN(C)C(=O)CC(C)(C)C)c1C (racemic) [Racemate]', '0.2 nM');

Every entry's value here was drawn from patent US20030040534A1.
